tested on: Human immunodeficiency virus 1; test: Antiviral activity against HIV1 expressing reverse transcriptase G190A mutant infected in human MT4 cells assessed as reduction in virus-induced cytopathic effect; type: functional, organism-based; settings: Human immunodeficiency virus 1, MT4
READOUT: pIC50
Remember, pIC50 is on a log scale: it is -log10 of the molar concentration.

## Input Look up pIC50 for this compound: Cc1cc(C#N)cc(C)c1Oc1nc(NC2CCN(Cc3ccc(S(C)(=O)=O)cc3Cl)CC2)ncc1Br
## Output 8.74

## Input And O=C1Nc2ccc(Cl)cc2[C@@](C#CC2CC2)(C(F)(F)F)O1 ?
## Output 8.22

## Input And Cc1cc(C#N)cc(C)c1Oc1nc(NC2CCN(Cc3ccc(S(N)(=O)=O)cc3Cl)CC2)ncc1Br ?
## Output 8.22

## Input And Cc1cc(C#N)cc(C)c1Oc1nc(Nc2ccc(C#N)cc2)nc(N)c1Br ?
## Output 8.96

FYI, the data here is from ChEMBL document CHEMBL1177791.
